Quick reference: activity score (negative = inhibition of binding) of the listed items.
molecular target: Zinc finger protein mex-5 (Caenorhabditis elegans) (UniProt Q9XUB2); assay: MEX-5 zinc finger RNA-binding disruptors – biochemical, C. elegans, fluorescence polarization, MLPCN library, primary screen (AID 1832); conditions: MEX-5/FITC-TCR2 RNA binding, at 10 µM, hits give low values;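 further: 0% = DMSO and -100% = 5 µM competing unlabeled TCR2 RNA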
Sequence (Q9XUB2 whole entry, looked up): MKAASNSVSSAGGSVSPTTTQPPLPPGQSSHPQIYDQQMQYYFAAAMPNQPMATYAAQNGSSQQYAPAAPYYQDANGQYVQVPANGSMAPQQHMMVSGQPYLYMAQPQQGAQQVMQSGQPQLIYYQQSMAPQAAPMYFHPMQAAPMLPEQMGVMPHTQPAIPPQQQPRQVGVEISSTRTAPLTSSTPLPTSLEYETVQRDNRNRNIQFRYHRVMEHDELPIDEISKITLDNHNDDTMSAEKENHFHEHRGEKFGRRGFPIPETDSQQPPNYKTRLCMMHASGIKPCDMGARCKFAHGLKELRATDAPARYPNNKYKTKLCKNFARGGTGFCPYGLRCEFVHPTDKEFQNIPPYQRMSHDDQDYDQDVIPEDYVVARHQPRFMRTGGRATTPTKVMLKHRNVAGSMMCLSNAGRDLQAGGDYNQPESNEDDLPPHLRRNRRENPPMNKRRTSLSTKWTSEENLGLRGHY
In all, about 300,000 compounds went through this assay and about 1,100 (0.37%) were called active. The sample holds actives, similar compounds and a random draw of the others, so the mix is not that of the screen.
# output: bare number, implied unit %

compound=CCN(CC(=O)Nc1ccc2c(c1)OCCO2)Cc1cc(=O)oc2cc(C)c(C)cc12 test_value=-1.63
compound=S=c1[nH]nc2c3c4c(sc3ncn12)CCCC4 test_value=0.932
compound=O=C(CCC(=O)NNc1nc2ccccc2c2nc(-c3ccccc3)nn12)NCCCN1CCCC1=O test_value=0.509

Query :: Any idea what its activity score (negative = inhibition of binding) is? The compound is "CCOC(=O)NC(=O)C(=CNc1cccc(OC)c1)C(=O)NC(=O)OCC"
Result :: -0.689

Query :: Next compound: COc1ccc(CCn2c(=N)c(C(=O)NCC3CCCO3)cc3c(=O)n4cccc(C)c4nc32)cc1OC (stereo unspecified)
Result :: 1.85

Query :: Next compound: "Cc1cccc(N=Nc2c(C)[nH]n(-c3ccccc3)c2=O)c1"
Result :: -1.5

Query :: Next compound: "CCN1C(=NCC(C)C)N[C@@H](CCc2ccccc2)[C@H](C(=O)NCC(C)C)[C@H]1C"
Result :: 0.663

Query :: Next compound: "CCCCn1c(N)c(N(Cc2ccccc2OC)C(=O)COc2cc(C)ccc2Cl)c(=O)[nH]c1=O"
Result :: -0.677

Query :: Next compound: "COc1cccc(NC(=O)CSc2nnc(-c3cccnc3)o2)c1"
Result :: -0.46

Query :: Next compound: "CC(C)(C)N(Cc1ccccc1)C(=O)c1ccncc1"
Result :: 0.0862

Query :: Next compound: "Cc1ccc(/C=C/C(=O)Nc2ccc([N+](=O)[O-])c(NC(=O)/C=C/c3ccc(C)o3)c2)o1"
Result :: 1.59

Query :: Next compound: "Cc1ccc(-c2cc(C(=O)NC3CCN(Cc4ccccc4)CC3)c3ccccc3n2)cc1"
Result :: -2.28

Query :: Next compound: "O=C(Nc1ccccc1Cc1ccccc1)c1ccc2c(c1)SC1=NS(=O)(=O)CCN12"
Result :: 1.1

Query :: Next compound: "O=C(N/N=C/c1ccc([N+](=O)[O-])o1)c1cn(-c2ccccc2)nc1-c1ccc(F)cc1"
Result :: -3.11

Query :: Next compound: "COc1ccc(NC(=O)CN(C)C(=O)c2n[nH]c3ccccc23)cc1"
Result :: -3.49

Query :: Next compound: "O=C(c1ccc(F)cc1)n1c(=S)nc2ccccn21"
Result :: 0.662

Query :: Next compound: "Cc1ccnc(NC(=O)c2ccc(Cl)c([N+](=O)[O-])c2)c1"
Result :: -0.216

###

target: Zinc finger protein mex-5 (Caenorhabditis elegans) (UniProt Q9XUB2); assay: MEX-5 zinc finger RNA-binding disruptors – biochemical, C. elegans, fluorescence polarization, MLPCN library, primary screen (AID 1832); conditions: MEX-5/FITC-TCR2 RNA binding, at 10 µM;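 further: 0% = DMSO and -100% = 5 µM competing unlabeled TCR2 RNA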
Screen size: about 300,000 compounds; about 1,100 (0.37%) were called active.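 Rule for the calls: active = inhibition past about -25% in most replicates, and total fluorescence under double the plate's negative control median (limit read from the data); inconclusive = replicates evenly split on the limit, or fluorescence at least double controls; inactive = too little inhibition in most replicates.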 The sample as a whole holds a higher share of actives than the screen did.
Select the correct class. Options are 1 (yes) = active, 0 (no) = inactive and nothing else.

Completed entries (count: 3):
compound="CCC1=C(C(=O)OC)C(c2cc(OC)ccc2OC)C(C#N)=C(N)O1 (stereo unspecified)" study_target="Zinc finger protein mex-5 (Caenorhabditis elegans) (UniProt Q9XUB2)" class_name="0 (no)"
compound=Cc1c(CN2CCCCC2)c(O)n(CCO)c(=O)c1C#N study_target="Zinc finger protein mex-5 (Caenorhabditis elegans) (UniProt Q9XUB2)" class_name="0 (no)"
compound="CCCN1CC=C2C(C#N)=C(N)C(C#N)(C#N)C(c3cc(OC)ccc3OC)C2C1 (stereo unspecified)" study_target="Zinc finger protein mex-5 (Caenorhabditis elegans) (UniProt Q9XUB2)" class_name="1 (yes)"

Query :: Which outcome was assigned to CCCCCCn1c(CN2CCCC(C)C2)nc2c1c(=O)n(C)c(=O)n2C (stereo unspecified) in this test?
Result :: 0 (no)

Query :: Next compound: COC(=O)C1=C(C)Nc2ncnn2C1c1ccco1 (stereo unspecified)
Result :: 0 (no)

Query :: Next compound: "CCN1CC=C2C(C#N)=C(N)C(C#N)(C#N)[C@H](c3ccoc3)[C@H]2C1"
Result :: 1 (yes)
